B1: KCTD10 (parent)
chain: SSKEEQKLIATSNKPAVKLLYNRS

Variants of: B1
Test: protein stability index of a GFP-peptide fusion (GPS, HEK-293T) (PSI 1-6); higher = more stable;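 note: lentivirally expressed fusions sorted by FACS into six bins by GFP to DsRed ratio, PSI derived from sequencing read proportions per bin multiplied by bin number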
Conditions: c terminus: a fixed tail appended
I would appreciate it if you labelled entries yes (1) when protein stability index is 4 or higher, otherwise no (0).

> print(dat)
   residue.change  category.label
1            A10G          no (0)
2             K7W          no (0)
3            S24L          no (0)
4            P15R          no (0)
5             L8A         yes (1)
6             Q6L          no (0)

Q: Given K18C , state whether its protein stability index is at least 4.
Ans: yes (1)

Q: Given S2D , state whether its protein stability index is at least 4.
Ans: yes (1)

Q: Given S24I , state whether its protein stability index is at least 4.
Ans: no (0)

Q: Given K14Y , state whether its protein stability index is at least 4.
Ans: no (0)

This collection of values is drawn from the supplement of paper PMC10567573.
